From: patent US20240400663A1

Exercise: state measured Max growth inhibition (%) Cam3.II for each of the binders provided.
# experimental_system: PfRH5 of Plasmodium falciparum strain Cam3.II (on live parasites) (Plasmodium falciparum)
# assay_notes: cell-based or functional assay
Write your answer as a measured quantity: the number, then the unit.

binder: H1H29127P (antibody, V domains shown) VH: QVQLVESGGGVVQPGRSLRLSCAASGFTFSSYGMHWVRQAPGKGLEWVAAIWYDGSNKYYADSVKGRFTISRDNSKNTLYLQMNSLRAEDTAVYFCARGEHYYGSGPFDPWGQGTLVTVSS VL: DIQMTQSPSSLSASVGDRVTITCRASQSISNYLNWYQQKPGKAPKLLIFAASSLQSGVPSRFSGSGSGTDFTLTISSLQPEDFATYYCQQSYSSPLTFGGGTKVEIKR
Max growth inhibition (%) Cam3.II: 47%

Kindly give each listed record's Max growth inhibition (%) Cam3.II.
1. H1H29109P (antibody, V domains shown) VH: EVQLVESGGGLVQPGRSLRLSCAVSGFTFDDYAMHWVRQAPGKGLEWVSGISWNSGDIDYADSVKGRFTISRDNAKNSLYLQMNSLRAEDTALYYCAKDTLSGTGTTWYYFDYWGQGTLVTVSS VL: DIQLTQSPSFLSASVGDRVTITCWASQGISSYLIWYQQKPGKAPKLLIYAASTLQSGVPSRFSGSGSGTEFTLTISSLQPEDFATYYCQQVNSYPLTFGGGTKVEIKR
2. H1H29089P (antibody, V domains shown) VH: EVQLVQSGAEVKKPGESLKISCKGSGYSFTSYWIVWVRQMPGKGLEWMGIIYPGDSDTRYSPSFQGQVTISADKSISTAYLQWSSLKASDTAMYYCARQDITGTTGFDYWGQGTLVTVSS VL: DIQMTQSPSSLSASVGDRVTITCRASQSIRNYLNWYQQKPGKAPKLLIYAASSLQSGVPSRFSGSGSGTDFTLTISSLQPEDFATYFCQQSYSTPFTFGPGTKVDIKR

Result block:
35.9%
56.2%
